assay: Ratio of drug level from brain to plasma in ICR mouse at 30 mg/kg, iv measured at 0.75 hrs; type: ADME, organism-based; parameters: dose 30 mg/kg, route intravenous; conditions: read-out: BPR
ENDPOINT_NAME: Kp at 0.75 h
Give only the figure.

In plain terms, "Cl.O=c1[nH]nc2c(NCCCc3ccncc3)cc(Cl)cn12" has a documented Kp at 0.75 h of 0.1

* * *

experiment: Clearance in rat at 3 mg/kg, iv by LC/MS/MS analysis; format: ADME, organism-based; set-up: dose 3 mg/kg, route intravenous; details: in vivo
ENDPOINT_NAME: clearance (mL/min/kg)
Note: unit mL/min/kg is implicit; provide only the numeric part.

In plain terms, "Cl.O=c1[nH]nc2c(NCCCc3ccncc3)cc(Cl)cn12" has a documented clearance of 20

* * *

experiment: Ratio of drug level from brain to plasma in ICR mouse at 30 mg/kg, iv measured at 0.25 hrs; format: ADME, organism-based; set-up: dose 30 mg/kg, route intravenous; settings: read-out: BPR
ENDPOINT_NAME: Kp at 0.25 h
Give only the figure.

In plain terms, "Cl.O=c1[nH]nc2c(NCCCc3ccncc3)cc(Cl)cn12" has a documented Kp at 0.25 h of 0.34

* * *

assay: AUC (0 to infinity) in rat at 3 mg/kg, iv by LC/MS/MS analysis; assay type: ADME, organism-based; set-up: time infinity, dose 3 mg/kg, route intravenous; conditions: plasma
ENDPOINT_NAME: AUC(0-inf) (ng·h/mL)
Note: unit ng·h/mL is implicit; provide only the numeric part.

In plain terms, "Cl.O=c1[nH]nc2c(NCCCc3ccncc3)cc(Cl)cn12" has a documented AUC(0-inf) of 2490
